The reported numbers originate from paper PMC11396751.

System: A549 cells
measurement notes: MTT anti-proliferative assay, A549
Assay type: cell-based, human
measurement setup: Homo sapiens, A549; MTT, 48 h; means ± SD of three experiments
pIC50: −log10 of the molar value.
Label rule met when pIC50 is at or above 5; otherwise label rule not met.

- compound: "C=C1C(=O)C23C(=O)OC45CCC(C)(C)C6C(OC(=O)N7CCOCC7)OCC64C2CCC1C3O5 (single isomer, unassigned; ent-6) [Compound 5i]"
  answer label: "rule not met"
- compound: "C=C1C(=O)C23C(=O)OC45CCC(C)(C)C6C(OC(=O)CCC(=O)NCc7ccc(C(C)(C)C)cc7)OCC64C2CCC1C3O5 (single isomer, unassigned; ent-6) [Compound 7d]"
  answer label: "rule met"
- compound: "C=C1C(=O)C23C(=O)OC45CCC(C)(C)C6C(O)OCC64C2CCC1C3O5 (single isomer, unassigned; ent-6) [Compound 4]"
  answer label: "rule not met"
- compound: "C=C1C(=O)C23C(=O)OC45CCC(C)(C)C6C(OC(=O)N(CC)CC)OCC64C2CCC1C3O5 (single isomer, unassigned; ent-6) [Compound 5b]"
  answer label: "rule not met"
- compound: "C=C1C(=O)C23C(=O)OC45CCC(C)(C)C6C(OC(=O)N(C)CC)OCC64C2CCC1C3O5 (single isomer, unassigned; ent-6) [Compound 5c]"
  answer label: "rule not met"
- compound: "C=C1C(=O)C23C(=O)OC45CCC(C)(C)C6C(OC(=O)N7c8ccccc8Sc8ccccc87)OCC64C2CCC1C3O5 (single isomer, unassigned; ent-6) [Compound 5k]"
  answer label: "rule not met"
- compound: "C=C1C(=O)[C@]23[C@H](O)[C@H]1CC[C@H]2[C@@]12CO[C@]3(O)[C@@H](O)[C@@H]1C(C)(C)CC[C@@H]2O [Oridonin, reference compound]"
  answer label: "rule not met"

Could you please find out whether C=C1C(=O)C23C(=O)OC45CCC(C)(C)C6C(OC(=O)CCC(=O)N7CCC(c8noc9cc(F)ccc89)CC7)OCC64C2CCC1C3O5 (single isomer, unassigned; ent-6) [Compound 7h] has pIC50 that meets 5 or exceeds it?
rule met
